List of KD values.
System: GR (xpt-pbuX guanine riboswitch) (RNA, riboswitch) GGACAUAUAAUCGCGUGGAUAUGGCACGCAAGUUUCUACCGGGCACCGUAAAUGUCCGACUAUGUCC
Assay: ITC
Conditions: 100 mM KCl, 10 mM MgCl2; 50 mM K-HEPES, pH 7.5, 30 °C; apparent
Quick note: give the figure in µM, leave out the unit.

Nc1nc(Br)c2[nH]cnc2n1 = 2.1
Nc1nc(=S)c2[nH]cnc2[nH]1 = 0.073
COc1nc(N)nc2[nH]cnc12 = 23
Nc1nc(N)c2[nH]cnc2n1 = 4.1
Nc1nc(Cl)c2[nH]cnc2n1 = 0.89

Okay, now this molecule:
In: Quick one: KD of "Nc1ncc2[nH]cnc2n1" ?
Out: 4.4

###

List of log10 of KD values.
System: GRA (GR C74U) (RNA, riboswitch) GGACAUAUAAUCGCGUGGAUAUGGCACGCAAGUUUCUACCGGGCACCGUAAAUGUCCGAUUAUGUCC
Experiment: ITC
Conditions: 100 mM KCl, 10 mM MgCl2; 50 mM K-HEPES, pH 7.5, 30 °C; apparent
Values below are the log10 of the recorded KD, with µM as the unit.

These recorded examples may help you get a feel for the data.
Nc1ncnc2[nH]cnc12 = -0.33
COc1nc(N)nc2[nH]cnc12 = 1.30
Nc1nc(F)nc2[nH]cnc12 = 0.60

In: Quick one: log10 of KD of "Nc1nc(Cl)c2[nH]cnc2n1" ?
Out: -0.14

In: Now the compound "Nc1nc(Br)c2[nH]cnc2n1"
Out: 0.43
